B1: Cyclin-F, residues 28 to 80; numbered along this chain, P41002 (parent)
chain: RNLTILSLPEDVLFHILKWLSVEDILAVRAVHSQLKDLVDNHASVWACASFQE

Variants of: B1
Assay: abundance fitness (aPCA) (normalised: wild type 0, dead -1); higher = more abundant; growth selection in yeast, the domain comes from the species named
Conditions: Homo sapiens
Decision: abundance fitness compared against -0.5; not below it gives YES, below it gives NO.

INSERT INTO assay_data (variantcode, assignedlabel) VALUES
  ('L3T', 'YES');

Input: Entry "V39K" : is its abundance fitness no less than -0.5?
Output: NO

Input: API: above_or_equal(metric=abundance fitness, cutoff=-0.5) for item "D24L"
Output: NO

Attribution: the Human Domainome abundance scans (Beltran et al. 2025)
